Please respond with reported pIC50 for every item in the list.
Target desc: T1, human TIGIT on the cell surface (human, UniProt Q495A1 22-244)
T1 construct: Expressed on engineered Jurkat cells or naturally on human primary CD8+ T cells (the cells are named under assay); also called Human TIGIT Jurkat; human TIGIT expressing Jurkat cells
T1 sequence: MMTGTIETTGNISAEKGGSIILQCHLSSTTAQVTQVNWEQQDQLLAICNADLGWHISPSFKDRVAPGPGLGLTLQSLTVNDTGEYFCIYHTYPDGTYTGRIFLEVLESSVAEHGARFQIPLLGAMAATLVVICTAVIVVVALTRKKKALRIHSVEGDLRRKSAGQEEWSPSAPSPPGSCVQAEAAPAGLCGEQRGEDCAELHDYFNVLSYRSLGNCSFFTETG
Assay details: flow cytometry, antibody titrated against labeled PVR-Fc binding to human TIGIT Jurkat cells
Kindly note that pIC50 refers to -log10 of the concentration in mol/L and answer with the value alone.

Return value of pIC50 for input MAB17-IgG4 (antibody, V domains shown) VH: QVQLVQSGAEVKKPGASVKVSCKASGYTFPAYYIHWVRQAPGQGLEWMGIINPSLGLTSYARKFQGRVTMTRDTSTSTVYMELSSLRSEDTAVYYCARGGRTTWIGALDIWGQGTMVTVSS VL: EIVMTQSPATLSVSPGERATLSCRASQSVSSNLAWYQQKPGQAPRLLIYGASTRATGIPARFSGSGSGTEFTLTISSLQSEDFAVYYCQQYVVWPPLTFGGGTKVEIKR , no commentary.
8.59

Give pIC50 for MAB16-IgG4 (antibody, V domains shown) VH: QVQLVQSGAEVKKPGASVKVSCKASGYTFREYYMHWVRQAPGQGLEWMGIINPSIGLTSYARKFQGRVTMTRDTSTSTVYMELSSLRSEDTAVYYCARGGRTTWIGALDIWGQGTMVTVSS VL: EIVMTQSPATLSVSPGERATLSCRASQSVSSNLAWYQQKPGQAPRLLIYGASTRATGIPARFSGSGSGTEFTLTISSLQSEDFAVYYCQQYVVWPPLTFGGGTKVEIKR
8.68

Note down pIC50 recorded for MAB1-IgG4 (antibody, V domains shown) VH: QLQLQESGPGLVKPSETLSLTCTVSGGSITSSSYYWGWIRQPPGKGLEWIGSIYYSGATFYNPSLKSRVTISVDTSKNQFSLKLSSVTAADTAVYYCARDANYYGSAWAFDPWGQGTLVTVSS VL: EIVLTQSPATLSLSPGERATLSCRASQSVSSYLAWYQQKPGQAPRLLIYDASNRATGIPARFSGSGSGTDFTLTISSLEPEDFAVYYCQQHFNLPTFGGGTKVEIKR
8.66

Report pIC50, nothing else, for this binder: MAB15-IgG4 (antibody, V domains shown) VH: QVQLVQSGAEVKKPGASVKVSCKASGYTFREYYMHWVRQAPGQGLEWMGIINPSIGLTSYARKFQGRVTMTRDTSTSTVYMELSSLRSEDTAVYYCARGGRTTWIGAFDIWGQGTMVTVSS VL: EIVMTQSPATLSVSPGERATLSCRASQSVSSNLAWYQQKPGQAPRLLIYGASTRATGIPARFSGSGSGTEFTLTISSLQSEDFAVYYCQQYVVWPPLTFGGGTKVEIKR
8.66

# return recorded pIC50 for entry MAB18-IgG4 (antibody, V domains shown) VH: QVQLVQSGAEVKKPGASVKVSCKASGYTFPAYYMHWVRQAPGQGLEWMGIINPSLGLTSYARKFQGRVTMTRDTSTSTVYMELSSLRSEDTAVYYCARGGRTTWIGAFDIWGQGTMVTVSS VL: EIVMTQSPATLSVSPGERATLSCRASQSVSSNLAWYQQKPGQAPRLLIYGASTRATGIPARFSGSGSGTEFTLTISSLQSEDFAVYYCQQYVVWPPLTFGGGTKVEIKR
8.74

src = patent US20170340735A1
